# assay.name: chemical genetic growth profiling, strain panel (AID 1159580);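 further: tested at 20 µM; growth read once vehicle control cultures reached saturation at 30 °C; 1 = growth at the plate median or of vehicle wells; lower values mean less growth of the strain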
# study.conditions: S. cerevisiae deletion strains, growth OD, locus YDL035C, strain GPR1, stronger effect = lower value
Out of some 5,500 compounds screened, about 2,000 (36%) were called active. Roughly 18% stayed inconclusive and do not appear here. Some of the results follow.
recorded.endpoint: normalized growth

Some solved entries appear below for comparison.
{"molecule": "CN(Cc1cnc2nc(N)nc(N)c2n1)c1ccc(C(=O)NC(CCC(=O)O)C(=O)O)cc1 (centres undefined)", "readout.value": "0.975 (inactive)"}
{"molecule": "Nc1nccs1", "readout.value": "1.01 (inactive)"}
{"molecule": "NC(=O)c1cc[n+](CC2=C(C(=O)O)N3C(=O)C(NC(=O)C(c4ccccc4)S(=O)(=O)[O-])C3SC2)cc1 (centres undefined)", "readout.value": "0.989 (inactive)"}
{"molecule": "CC1=C(/C=C/C(C)=C/C=C/C(C)=C/C=C/C=C(C)/C=C/C=C(C)/C=C/C2=C(C)CCCC2(C)C)C(C)(C)CCC1", "readout.value": "1 (inactive)"}
{"molecule": "COc1cc2c(cc1O)CC1c3c(cc(O)c(OC)c3-2)CCN1C (centres undefined)", "readout.value": "1 (inactive)"}

Item: CC1=C(/C=C/C(C)=C/C=C/C(C)=C/C(=O)O)C(C)(C)CCC1 | normalized growth: 0.998 (inactive)

Item: NCCCCN=C(N)N | normalized growth: 1.02 (inactive)

Item: Nc1nc2c(c(=O)[nH]1)N(C=O)C(CNc1ccc(C(=O)N[C@@H](CCC(=O)O)C(=O)O)cc1)CN2 (some centres undefined) | normalized growth: 1.01 (inactive)

Item: CC(=O)OC/C=C(C)/C=C/C=C(C)/C=C/C1=C(C)CCCC1(C)C | normalized growth: 1.01 (inactive)
